Data provenance: ChEMBL document CHEMBL3745696

tested on: SW480; assay: Cytotoxicity against human SW480 cells by MTT assay; assay type: functional, cell-based
Recorded Endpoint: pIC50
Quick note: pIC50 values are minus log10 of concentrations in mol/L.

# annotated cases, reported pIC50 shown
Cc1ccc(C[n+]2cn(CC(=O)N3CCC4(C)c5ccccc5N(C)C34)c3cc(C)c(C)cc32)cc1 (stereo unspecified) has a reported pIC50 of 5.12

Cc1cc2c(cc1C)[n+](Cc1ccc3ccccc3c1)cn2CC(=O)N1CCC2(C)c3ccccc3N(Cc3ccccc3)C12 (stereo unspecified) has a reported pIC50 of 5.75

---
CC12CCN(C(=O)Cn3c[n+](CC(=O)c4ccc(Br)cc4)c4ccccc43)C1N(Cc1ccccc1)c1ccccc12 (stereo unspecified) has a reported pIC50 of 5.04

Cc1n(CC(=O)N2CCC3(C)c4ccccc4N(Cc4ccccc4)C23)c2ccccc2[n+]1Cc1ccc2ccccc2c1.[Br-] (stereo unspecified) has a reported pIC50 of 5.79

Cc1cc2c(cc1C)[n+](CC(=O)c1ccccc1)cn2CC(=O)N1CCC2(C)c3ccccc3N(Cc3ccccc3)C12 (stereo unspecified) has a reported pIC50 of 5.15

CC12CCN(C(=O)Cn3c[n+](CC(=O)c4ccc5ccccc5c4)c4ccccc43)C1N(Cc1ccccc1)c1ccccc12 (stereo unspecified) has a reported pIC50 of 5.16

Cc1n(CC(=O)N2CCC3(C)c4ccccc4N(C)C23)c2ccccc2[n+]1CC(=O)c1ccc2ccccc2c1 (stereo unspecified) has a reported pIC50 of 5.00

Cc1n(CC(=O)N2CCC3(C)c4ccccc4N(Cc4ccccc4)C23)c2ccccc2[n+]1CC(=O)c1ccccc1 (stereo unspecified) has a reported pIC50 of 5.08

Cc1n(CC(=O)N2CCC3(C)c4ccccc4N(C)C23)c2ccccc2[n+]1Cc1ccc2ccccc2c1 (stereo unspecified) has a reported pIC50 of 5.13

----------
tested on: A549; assay: Cytotoxicity against human A549 cells by MTT assay; assay type: functional, cell-based
Listed here: items and their measured pIC50.
Quick note: pIC50 values are minus log10 of concentrations in mol/L.

# annotated cases, reported pIC50 shown
Test item CC12CCN(C(=O)Cn3c[n+](Cc4ccc(Br)cc4)c4ccccc43)C1N(Cc1ccccc1)c1ccccc12 (stereo not drawn) ; A549; reported pIC50 was 5.12

Test item Cc1n(CC(=O)N2CCC3(C)c4ccccc4N(Cc4ccccc4)C23)c2ccccc2[n+]1Cc1ccc(Br)cc1 (stereo not drawn) ; A549; reported pIC50 was 5.10

Test item Cc1cc2c(cc1C)[n+](CC(=O)c1ccccc1)cn2CC(=O)N1CCC2(C)c3ccccc3N(Cc3ccccc3)C12 (stereo not drawn) ; A549; reported pIC50 was 5.18

Proceed to the following item.
Test item Cc1cc2c(cc1C)[n+](CC(=O)c1ccc(Br)cc1)cn2CC(=O)N1CCC2(C)c3ccccc3N(Cc3ccccc3)C12 (stereo not drawn) ; A549; reported pIC50 was 5.10

----------
Listed here: items and their measured pIC50.
system: A549; assay: Cytotoxicity against human A549 cells by MTT assay; assay type: functional, cell-based
Quick note: pIC50 values are minus log10 of concentrations in mol/L.

# annotated cases, reported pIC50 shown
CN1c2ccccc2C2(C)CCN(C(=O)Cn3c[n+](Cc4ccc5ccccc5c4)c4ccccc43)C12 (centres undefined) has a reported pIC50 of 4.85

Cc1n(CC(=O)N2CCC3(C)c4ccccc4N(C)C23)c2ccccc2[n+]1Cc1ccc2ccccc2c1 (centres undefined) has a reported pIC50 of 4.78

Cc1ccc(C[n+]2cn(CC(=O)N3CCC4(C)c5ccccc5N(Cc5ccccc5)C34)c3cc(C)c(C)cc32)cc1 (centres undefined) has a reported pIC50 of 5.32

Cc1cc2c(cc1C)[n+](CC(=O)c1ccc3ccccc3c1)cn2CC(=O)N1CCC2(C)c3ccccc3N(C)C12 (centres undefined) has a reported pIC50 of 5.19

Cc1n(CC(=O)N2CCC3(C)c4ccccc4N(Cc4ccccc4)C23)c2ccccc2[n+]1Cc1ccccc1Br (centres undefined) has a reported pIC50 of 5.13

---
COc1ccc(C(=O)C[n+]2c(C)n(CC(=O)N3CCC4(C)c5ccccc5N(Cc5ccccc5)C34)c3ccccc32)cc1 (centres undefined) has a reported pIC50 of 4.90

Cc1ccc(C[n+]2c(C)n(CC(=O)N3CCC4(C)c5ccccc5N(Cc5ccccc5)C34)c3ccccc32)cc1 (centres undefined) has a reported pIC50 of 5.18

Cc1cc2c(cc1C)[n+](Cc1ccc3ccccc3c1)cn2CC(=O)N1CCC2(C)c3ccccc3N(Cc3ccccc3)C12 (centres undefined) has a reported pIC50 of 5.32

Cc1cc2c(cc1C)[n+](Cc1ccccc1Br)cn2CC(=O)N1CCC2(C)c3ccccc3N(Cc3ccccc3)C12.[Br-] (centres undefined) has a reported pIC50 of 5.57

Cc1n(CC(=O)N2CCC3(C)c4ccccc4N(C)C23)c2ccccc2[n+]1CC(=O)c1ccc2ccccc2c1 (centres undefined) has a reported pIC50 of 5.12

Cc1n(CC(=O)N2CCC3(C)c4ccccc4N(Cc4ccccc4)C23)c2ccccc2[n+]1CC(=O)c1ccc(Br)cc1 (centres undefined) has a reported pIC50 of 5.01

Cc1cc2c(cc1C)[n+](Cc1ccc(Br)cc1)cn2CC(=O)N1CCC2(C)c3ccccc3N(C)C12 (centres undefined) has a reported pIC50 of 4.76

----------
assay: Cytotoxicity against human SMMC7721 cells by MTT assay; type: functional, cell-based; conditions: SMMC-7721
Listed here: items and their measured IC50.
State just the number; it will be interpreted in µM.

Cc1ccc(C[n+]2cn(CC(=O)N3CCC4(C)c5ccccc5N(Cc5ccccc5)C34)c3cc(C)c(C)cc32)cc1 (stereo unspecified) has a reported IC50 of 1.74

CC12CCN(C(=O)Cn3c[n+](Cc4ccc(Br)cc4)c4ccccc43)C1N(Cc1ccccc1)c1ccccc12 (stereo unspecified) has a reported IC50 of 7.53

Cc1cc2c(cc1C)[n+](CC(=O)c1ccc(Br)cc1)cn2CC(=O)N1CCC2(C)c3ccccc3N(C)C12 (stereo unspecified) has a reported IC50 of 8.72

Proceed to the following item.
COc1ccc(C(=O)C[n+]2cn(CC(=O)N3CCC4(C)c5ccccc5N(C)C34)c3cc(C)c(C)cc32)cc1 (stereo unspecified) has a reported IC50 of 7.49

----------
test: Cytotoxicity against human SMMC7721 cells by MTT assay; format: functional, cell-based; settings: SMMC-7721
Listed here: items and their measured IC50.
State just the number; it will be interpreted in µM.

Cc1ccc(C[n+]2c(C)n(CC(=O)N3CCC4(C)c5ccccc5N(Cc5ccccc5)C34)c3ccccc32)cc1 (configuration not stated) has a reported IC50 of 2.97

COc1ccc(C(=O)C[n+]2cn(CC(=O)N3CCC4(C)c5ccccc5N(Cc5ccccc5)C34)c3ccccc32)cc1 (configuration not stated) has a reported IC50 of 10

Cc1cc2c(cc1C)[n+](CC(=O)c1ccc3ccccc3c1)cn2CC(=O)N1CCC2(C)c3ccccc3N(C)C12 (configuration not stated) has a reported IC50 of 2.85

Cc1ccc(C[n+]2cn(CC(=O)N3CCC4(C)c5ccccc5N(Cc5ccccc5)C34)c3ccccc32)cc1 (configuration not stated) has a reported IC50 of 4.98

Cc1ccc(C[n+]2c(C)n(CC(=O)N3CCC4(C)c5ccccc5N(C)C34)c3ccccc32)cc1 (configuration not stated) has a reported IC50 of 8.03

Cc1cc2c(cc1C)[n+](Cc1ccc3ccccc3c1)cn2CC(=O)N1CCC2(C)c3ccccc3N(C)C12 (configuration not stated) has a reported IC50 of 4.03

COc1ccc(C(=O)C[n+]2cn(CC(=O)N3CCC4(C)c5ccccc5N(Cc5ccccc5)C34)c3cc(C)c(C)cc32)cc1 (configuration not stated) has a reported IC50 of 5.07

CC12CCN(C(=O)Cn3c[n+](CC(=O)c4ccccc4)c4ccccc43)C1N(Cc1ccccc1)c1ccccc12 (configuration not stated) has a reported IC50 of 14.5

----------
assay: Cytotoxicity against human SMMC7721 cells by MTT assay; format: functional, cell-based; conditions: SMMC-7721
pIC50: −log10 of the molar value.
Listed here: items and their measured pIC50.

# annotated cases, reported pIC50 shown
COc1ccc(C(=O)C[n+]2c(C)n(CC(=O)N3CCC4(C)c5ccccc5N(C)C34)c3ccccc32)cc1 (configuration not stated) has a reported pIC50 of < 4.70

CC12CCN(C(=O)Cn3cnc4ccccc43)C1N(Cc1ccccc1)c1ccccc12 (configuration not stated) has a reported pIC50 of < 4.70

Cc1nc2ccccc2n1CC(=O)N1CCC2(C)c3ccccc3N(Cc3ccccc3)C12 (configuration not stated) has a reported pIC50 of < 4.70

COc1ccc(C(=O)C[n+]2ccn(CC(=O)N3CCC4(C)c5ccccc5N(C)C34)c2)cc1 (configuration not stated) has a reported pIC50 of < 4.70

CN1c2ccccc2C2(C)CCN(C(=O)Cn3cc[n+](Cc4ccc(Br)cc4)c3)C12 (configuration not stated) has a reported pIC50 of < 4.70

Cc1n(CC(=O)N2CCC3(C)c4ccccc4N(C)C23)c2ccccc2[n+]1CC(=O)c1ccc(Br)cc1 (configuration not stated) has a reported pIC50 of < 4.70

---
Cc1cc2ncn(CC(=O)N3CCC4(C)c5ccccc5N(Cc5ccccc5)C34)c2cc1C (configuration not stated) has a reported pIC50 of < 4.70
